test system: Streptomyces albaduncus strain C38291; assay: growth inhibition of producing strain by antibiotics; format: cell-based
PARAMETER: growth of strain C38291 inhibited or not

Example entries begin here.
CC1(C)S[C@@H]2[C@H](NC(=O)[C@H](N)c3ccccc3)C(=O)N2[C@H]1C(=O)O	not
CN(C)[C@@H]1C(=O)C(C(N)=O)=C(O)[C@@]2(O)C(=O)C3=C(O)c4c(O)cccc4[C@@](C)(O)[C@H]3C[C@@H]12	inhibited
CC1(C)S[C@@H]2[C@H](NC(=O)Cc3ccccc3)C(=O)N2[C@H]1C(=O)O	not
CC[C@H]1OC(=O)[C@H](C)[C@@H](O[C@H]2C[C@@](C)(OC)[C@@H](O)[C@H](C)O2)[C@H](C)[C@@H](O[C@@H]2O[C@H](C)C[C@H](N(C)C)[C@H]2O)[C@](C)(O)C[C@@H](C)C(=O)[C@H](C)[C@@H](O)[C@]1(C)O	not

// below: growth of strain C38291 inhibited or not requested for another compound
Q: Give its growth of strain C38291 inhibited or not value. Item: `[H]/N=C(/N)N[C@H]1[C@H](O)[C@@H](O)[C@H](O[C@@H]2O[C@@H](C)[C@](O)(C=O)[C@H]2O[C@@H]2O[C@@H](CO)[C@H](O)[C@@H](O)[C@@H]2NC)[C@@H](N/C(N)=N\[H])[C@@H]1O`
Result: inhibited
